The values you see were collected from paper PMC4798226.

biological target: HAT-tagged recombinant phosphoenolpyruvate protein phosphotransferase (rPtsA) (Streptococcus pneumoniae (serotype 3 strain WU2)); assay: MST; labeled rPtsA (NT-495 dye) constant at 335 nM; 16 serial dilutions of each peptide (~90 nM–3.175 mM); Monolith NT.115; triplicate
Value type: Kd (µM)
Output spec: scalar in µM, unitless text.

Worked set:
>  <Binder>
VLVKNDARRTRS [BMPER-derived peptide]

>  <Kd [µM]>
21

$$$$
>  <Binder>
DQVARIPVIRRV [Int β4-derived peptide]

>  <Kd [µM]>
115

$$$$
>  <Binder>
TEQVSDQKNAPA [MMRN1-derived peptide]

>  <Kd [µM]>
391

$$$$
>  <Binder>
DGGVPML [PCDH19-derived peptide]

>  <Kd [µM]>
58

$$$$

Kindly review the next binder as well.
## Input Query (binder): SDGGVPV [Eps 1-derived peptide] ; field requested: Kd
## Output 43.9
